System: NCI-H23
Experiment: cells
Settings: Homo sapiens, NCI-H23, 48 h, read-out: Median Growth Inhibitory Concentration (GI50)
Mark each entry class 1 if its GI50 sits below 5 µM, and class 0 for all others.

1. CC1(/C=C/c2ccccc2O)C=Cc2ccccc2O1 (stereo not drawn) [EF7] : class 0
2. OC(CCc1ccc(F)cc1F)CCc1ccc(F)cc1F [EF19, 1,5-Bis(2,4-difluorophenyl)-pentan-3-ol] : class 0
3. CC(=O)O.O=C1C(=Cc2ccccc2F)CNCC1=Cc1ccccc1F [EF24] : class 1
4. O=C(C=Cc1ccc(F)cc1F)C=Cc1ccc(F)cc1F [EF9] : class 0
5. O=C1C(=Cc2ccccc2O)CCCC1=Cc1ccccc1O [EF4] : class 1

----------
Tested on: Tissue Factor (TF) production by human melanoma cell line RPMI-7951
Assay: TF ELISA, RPMI-7951
Format: cell-based
Conditions: 5 μM, DMSO control 7054
Experimental: IMUBIND Tissue Factor ELISA Kit (American Diagnostica Inc, Greenwich, Conn.) was used to determine TF concentration in each sample. The ELISA was carried out according to manufacturer's procedure.
Quantity: TF ELISA

1. COc1cc(C=C2CCCC(=Cc3ccc(O)c(OC)c3)C2=O)ccc1O [MD10] : 1793 pg/ml/well
2. C(=C\c1ccccc1)/S/C=C/c1ccccc1 [EF15] : 7506 pg/ml/well
3. O=C(C=Cc1ccccc1O)C=Cc1ccccc1O [EF2] : 1009 pg/ml/well
4. COc1cc(/C=C/C(=O)CC(=O)/C=C/c2ccc(O)c(OC)c2)ccc1O [Curcumin] : 7974 pg/ml/well
5. COc1ccc(/C=C/C(=O)/C=C/c2ccc(OC)c(OC)c2)cc1OC [MD6] : 1753 pg/ml/well
6. COc1ccc(CCC(=O)CCc2ccc(OC)c(OC)c2)cc1OC [MD279U, 1,5-Bis(3,4-dimethoxyphenyl)penta-3-one] : 7200 pg/ml/well
7. COc1ccc(CCC(O)CCc2ccc(OC)c(OC)c2)cc1OC [MD279L, 1,5-Bis(3,4-dimethoxyphenyl)penta-3-ol] : 5791 pg/ml/well

----------
Tested on: SF-539
Test: cells
Details: Homo sapiens, SF-539, 48 h, read-out: Median Lethal Concentration (LC50)
Quantity: CC50 (µM)

1) COc1cc(/C=C/C(=O)CC(=O)/C=C/c2ccc(O)c(OC)c2)ccc1O : 31.6
2) CC1(/C=C/c2ccccc2O)C=Cc2ccccc2O1 (stereo not drawn) : 55.7
3) OC(CCc1ccc(F)cc1F)CCc1ccc(F)cc1F : 55.3
4) O=C(C=Cc1ccc(F)cc1F)C=Cc1ccc(F)cc1F : 23.1
5) CC(=O)O.O=C1C(=Cc2ccccc2F)CNCC1=Cc1ccccc1F : 7.6
6) O=C1C(=Cc2ccccc2O)CCCC1=Cc1ccccc1O : 24.7

----------
Tested on: Vascular Endothelial Growth Factor (VEGF) production by human melanoma cell line RPMI-7951
Assay: VEGF ELISA, RPMI-7951
Conditions: RPMI-7951; 5 μM; DMSO control 3713
# maps each entry to its VEGF ELISA
Quantity: VEGF ELISA (pg/ml/well)

1) COc1ccc(/C=C/C(=O)/C=C/c2ccc(OC)c(OC)c2)cc1OC : 2826
2) O=C1C(=Cc2ccccc2O)CCCC1=Cc1ccccc1O : 2159
3) COc1cc(C=C2CCCC(=Cc3ccc(O)c(OC)c3)C2=O)ccc1O : 1585
4) COc1ccc(CCC(=O)CCc2ccc(OC)c(OC)c2)cc1OC [MD279U, 1,5-Bis(3,4-dimethoxyphenyl)penta-3-one] : 2511
